assay: Multicenter, open-label, Phase 1a/b study of HC-7366 in subjects with advanced solid tumors (safety, PK); assay type: in vivo; conditions: human, plasma, po, 10 mg, human, multiple once daily oral 10 mg (N = 3), Cycle 1 Day 21, geometric mean; read-out: AUC0-last
From the text: […]
parameter_measured: AUC(0-t) (ng·h/mL)
The reply should be a number in ng·h/mL, with the unit left off.

Requested read-out: AUC(0-t). Entry: CNC(=O)c1ncn2cc(-c3c(F)ccc(NS(=O)(=O)c4cc(Cl)cnc4OC)c3F)ncc12 [HC-7366]
17000

* * *

assay: Multicenter, open-label, Phase 1a/b study of HC-7366 in subjects with advanced solid tumors (safety, PK); type: in vivo; conditions: human, plasma, po, 40 mg, human, single oral dose 40 mg (N = 11), Cycle 1 Day 1, geometric mean
Excerpt: […]
parameter_measured: half-life (h)
// units = h; emit number, no label

half-life for CNC(=O)c1ncn2cc(-c3c(F)ccc(NS(=O)(=O)c4cc(Cl)cnc4OC)c3F)ncc12 ?
14.8

The reported measurements were obtained from patent US20260224563A1.
